# System: Escherichia coli TOP10;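 also: peptides expressed intracellularly from a pBAD plasmid library in pooled LB shake-flask culture, induced with 0.3% L-arabinose, DNA abundance read by NGS, three biological replicates, DESeq2 with apeglm shrinkage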
# protocol notes: shrunken log2 fold change of peptide-encoding DNA abundance (4.5 h post-induction vs induction); higher = less antimicrobial activity (less host growth inhibition)
# cond: time post-induction: 4.5 h; library: site-saturation at positions 5, 18, 19, 20
Would you mind labelling by shrunken log2 fold change? At or over 0.1 is yes, under is no.

> print(dat)
     macromolecule.sequence  label.class
 1  RRIRMRPPRLPRPRPRPFVAPRP          yes
 2  RRIRCRPPRLPRPRPRPVCYPRP           no
 3  RRIRSRPPRLPRPRPRPGKSPRP           no
 4  RRIRTRPPRLPRPRPRPYVWPRP           no
 5  RRIRGRPPRLPRPRPRPQILPRP           no
 6  RRIRWRPPRLPRPRPRPIDHPRP           no
 7  RRIRARPPRLPRPRPRPISGPRP           no
 8  RRIRHRPPRLPRPRPRPTGFPRP           no
 9  RRIRARPPRLPRPRPRPQQWPRP          yes
10  RRIRYRPPRLPRPRPRPKKIPRP           no
11  RRIRLRPPRLPRPRPRPHRIPRP           no
12  RRIRGRPPRLPRPRPRPPEWPRP          yes
13  RRIRYRPPRLPRPRPRPRYGPRP           no
14  RRIRERPPRLPRPRPRPLFIPRP           no
15  RRIRYRPPRLPRPRPRPVCTPRP           no
16  RRIRARPPRLPRPRPRPGEQPRP          yes
17  RRIRSRPPRLPRPRPRPWTHPRP           no
18  RRIRGRPPRLPRPRPRPRNPPRP          yes
19  RRIRTRPPRLPRPRPRPMTPPRP          yes
20  RRIRARPPRLPRPRPRPIDNPRP           no
21  RRIRSRPPRLPRPRPRPLEYPRP           no
22  RRIRLRPPRLPRPRPRPCVVPRP           no
23  RRIRQRPPRLPRPRPRPGDYPRP           no
24  RRIRMRPPRLPRPRPRPGIFPRP           no
25  RRIRCRPPRLPRPRPRPCIDPRP           no
26  RRIRWRPPRLPRPRPRPFFRPRP          yes
27  RRIRSRPPRLPRPRPRPECDPRP          yes
28  RRIRMRPPRLPRPRPRPDYQPRP           no
29  RRIRTRPPRLPRPRPRPFGTPRP           no
30  RRIRFRPPRLPRPRPRPMTCPRP           no
31  RRIRYRPPRLPRPRPRPNFWPRP          yes
32  RRIRLRPPRLPRPRPRPDSGPRP           no
33  RRIRPRPPRLPRPRPRPWLHPRP           no
34  RRIRSRPPRLPRPRPRPTPPPRP          yes
35  RRIRWRPPRLPRPRPRPPKTPRP          yes
36  RRIRQRPPRLPRPRPRPWDTPRP          yes
37  RRIRKRPPRLPRPRPRPPKQPRP          yes
38  RRIRARPPRLPRPRPRPRFDPRP          yes
39  RRIRKRPPRLPRPRPRPMLGPRP           no
40  RRIRARPPRLPRPRPRPALKPRP          yes
41  RRIRRRPPRLPRPRPRPDNTPRP          yes
42  RRIRTRPPRLPRPRPRPDMMPRP           no
43  RRIRTRPPRLPRPRPRPNAQPRP          yes
44  RRIRKRPPRLPRPRPRPEVIPRP           no
45  RRIRLRPPRLPRPRPRPQMSPRP           no
46  RRIRCRPPRLPRPRPRPTHFPRP          yes
47  RRIRMRPPRLPRPRPRPMHPPRP           no
48  RRIRVRPPRLPRPRPRPFDRPRP          yes
49  RRIRWRPPRLPRPRPRPYIFPRP           no
50  RRIRERPPRLPRPRPRPAWWPRP           no
51  RRIRPRPPRLPRPRPRPREGPRP          yes
52  RRIRPRPPRLPRPRPRPDDKPRP           no
53  RRIRGRPPRLPRPRPRPYTVPRP           no
54  RRIRNRPPRLPRPRPRPCQFPRP           no
55  RRIRLRPPRLPRPRPRPQLAPRP          yes
